- Tested on: aconitine-induced arrhythmia of rats
- Measurement Description: Anti-arrhythmic effect on aconitine-induced arrhythmia in rats, oral administration
- Type: in vivo, rats (Sprague Dawley)
- Run Parameters: at the maximum tolerated dose, oral, rats
Structures can show the parent of a compound that is named as a salt.
Classification field: criterion met = Maximum effect: lengthening of the duration of aconitine infusion, Δ% at or over 300%; criterion not met = Maximum effect: lengthening of the duration of aconitine infusion, Δ% under 300%.

Molecule	Group Label
COC(=O)c1[nH]c(C)c(C)c1OCCCN1CCC(O)(c2ccccc2)CC1	criterion not met
CCOC(=O)c1[nH]c(C)c(C)c1OCCN1CCC(O)(c2ccccc2)CC1	criterion met
CCOC(=O)c1[nH]c(C)c(C)c1OCC(O)CN1CCC(O)(c2ccc(F)cc2)CC1 (stereo not shown)	criterion not met
CCOC(=O)c1[nH]c(C)c(C)c1OCC(O)CN1CCC(O)(c2ccccc2)CC1 (stereo not shown) [Example 2, hydrochloride]	criterion not met
CCC[N+]12C(O)C(CC)C3CC1C1N(C)c4ccccc4C14CC2C3C4O (stereo not shown) [Prajmalium, N-propylajmalin, reference compound]	criterion not met
CCCCc1c(C)[nH]c(C(=O)OCC)c1OCC(O)CN1CCC(O)(c2ccccc2)CC1 (stereo not shown)	criterion not met
CCOC(=O)c1[nH]c(C)c(C)c1OCC(O)CN1CCC(O)(c2ccccn2)CC1 (stereo not shown) [Example 1, dihydrochloride]	criterion met

---

- System: rats
- Measurement Description: Toxicity / toleration in rats (changes in the initial ECG, cyanosis and cramps), oral administration
- Type: in vivo, rats (Sprague Dawley)
- Run Parameters: oral, rats; toxic dose / ED 50%
Measured Q (therapeutic range, quotient of the toxic dose and the ED 50%), listed per entry.
Observation Type: Q (therapeutic range, quotient of the toxic dose and the ED 50%)

Molecule	Recorded Number
CCOC(=O)c1[nH]c(C)c(C)c1OCCN1CCC(O)(c2ccccc2)CC1	16
COC(=O)c1[nH]c(C)c(C)c1OCC(O)CN1CCC(O)(c2ccccn2)CC1 (stereo not shown)	7.4
CCC[N+]12C(O)C(CC)C3CC1C1N(C)c4ccccc4C14CC2C3C4O (stereo not shown) [Prajmalium, N-propylajmalin, reference compound]	4.3
CCCCc1c(C)[nH]c(C(=O)OCC)c1OCC(O)CN1CCC(O)(c2ccccc2)CC1 (stereo not shown)	10

---

- Test system: aconitine-induced arrhythmia of rats
- Measurement Description: Anti-arrhythmic effect on aconitine-induced arrhythmia in rats, oral administration
- Assay type: in vivo, rats (Sprague Dawley)
- Run Parameters: at the maximum tolerated dose, oral, rats
Observation Type: Maximum effect: lengthening of the duration of aconitine infusion, Δ% (%)

Molecule	Recorded Number
COC(=O)c1[nH]c(C)c(C)c1OCCCCN1CCC(O)(c2ccccc2)CC1	308
COC(=O)c1[nH]c(C)c(C)c1OCC(O)CN1CCC(O)(c2ccccc2)CC1 (stereo not drawn)	302
COC(=O)c1[nH]c(C)c(C)c1OCC(O)CN1CCC(O)(c2ccccn2)CC1 (stereo not drawn)	307
